Target: T1, Murine CXCR2 (Mus musculus, UniProt P35343)
T1 construct: expressed in transfected cells
T1 sequence (P35343 1-359): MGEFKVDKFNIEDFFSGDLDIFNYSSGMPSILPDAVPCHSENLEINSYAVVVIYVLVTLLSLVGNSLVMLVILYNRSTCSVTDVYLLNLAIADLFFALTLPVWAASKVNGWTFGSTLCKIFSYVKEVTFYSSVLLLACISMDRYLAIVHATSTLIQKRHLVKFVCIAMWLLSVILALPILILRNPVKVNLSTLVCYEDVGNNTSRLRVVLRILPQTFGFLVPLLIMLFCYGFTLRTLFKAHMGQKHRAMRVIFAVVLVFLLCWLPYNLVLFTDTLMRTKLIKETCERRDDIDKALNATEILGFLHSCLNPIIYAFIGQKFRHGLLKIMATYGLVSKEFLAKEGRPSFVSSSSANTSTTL
Test: cELISA of hybridoma supernatants on cells transfected with murine CXCR2
Assay type: binding
Conditions: hybridoma supernatant; fluorescence units relative to positive control (100%)
Quantity: Murine CXCR2 % Positive (%)
Answer format: numeric, % implied, no suffix.

Need Murine CXCR2 % Positive, item BKO-4F10: VH SEQ ID NO: 19, VL SEQ ID NO: 20 (antibody, V domains shown, BKO_4F10_VH; BKO_4F10_VL) VH: QVQLVQSGAEVKKPGASVKVSCKASGYTFTGYYIHWVRQAPGQGLEWMGRFNPNNGGTNYAQRFQGRVTMTRDTSISTAYMELSRLRSDDTAVYYCARGPTIRLWFDNWFDSWGQGTLVTVSS VL: QSALTQPASVSGSPGQSITISCTGTSSDVGGYNYVSWYQQHPGKAPKLMIYDVSNRPSGISNRFSGSKSGNTASLTISGLQAEDEADYYCSSYTSSSTWVFGGGTKLTVL
7

Need Murine CXCR2 % Positive, item BKO-4A8: parental anti-CXCR2 antibody, VH SEQ ID NO: 17, VL SEQ ID NO: 18 (antibody, V domains shown, BKO_4A8_VH; BKO_4A8_VL) VH: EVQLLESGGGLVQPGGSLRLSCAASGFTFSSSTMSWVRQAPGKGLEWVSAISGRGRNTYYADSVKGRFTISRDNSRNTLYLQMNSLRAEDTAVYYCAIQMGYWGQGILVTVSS VL: QSALTQPPSASGSPGQSVTISCIGTSSDVGGYNYVSWYQQHPDKAPKLMIYEVNKRPSGVPDRFSGSKSGNTASLTVSGLQAEDEADYYCSSYAGNNNFGVFGGGTKLTVL
5

Need Murine CXCR2 % Positive, item BKO-8H10: VH SEQ ID NO: 43, VL SEQ ID NO: 44 (antibody, V domains shown, BKO_8H10_VH; BKO_8H10_VL) VH: QVQLVQSGAEVKKPGASVKVSCKASGYTFTGYYIHWVRQAPGQGLEWMGRIKPDSGGTNYAQKFQGRVTMTRDTSITTAYMELSRLRSDDTAVYYCARGGSGWDYWGQGTLVTVSS VL: QSALTQPPSASGSPGQSVTISFTGTSRDVGDYNYVSWYQQHPGKAPKLMIYEVNKRPSGVPDRFSGSKSGNTASLTVSGLQAEDEADYYCSSYAGSNTYVFGTGTKVTVL
8

Need Murine CXCR2 % Positive, item BKO-9A8: VH SEQ ID NO: 47, VL SEQ ID NO: 48 (antibody, V domains shown, BKO_9A8_H3_F03_VH; BKO_9A8_L1_H02_VL) VH: EVQLLESGGGLVQTGGSLRLSCAASGFTFSSNTMSWVRQAPGKGLEWVSAISGSGGRTYYVDSVKGRFTISRDNSKNTLYLQMHSLRAEDTAVYYCAIQLGSWGQGILVTVSS VL: QSALTQPPSASGSPGQSVTISCTGTSSDVGAYNYVSWYQQHPGKAPKLMIYEVTKRPSGVPDRFSGSKSGNTASLTVSGLQAEDEADYYCSSYAGNNNFGVFGGGTKLTVL
8

Need Murine CXCR2 % Positive, item BKO-10G10: VH SEQ ID NO: 51, VL SEQ ID NO: 52 (antibody, V domains shown, BKO_10G10_VH; BKO_10G10_VL) VH: QLQLQESGPGLVKPSETLSLTCTVSGGSIRRSSYYWGWIRQPPGKGLEWIGSFYNSGNTYYKPSLKSRVAISVDTPKNQFSLKLSSVTAADTAVYYCARGYSSGGFDPWGQGTLVTVSS VL: QSALTQPASVSGSPGQSITISCTGTSSDVGGYNYVSWCQQHPGKAPKIMIFDVSNRPSGVSNRFSGSKSGNTASLTISGLQAEDEADYYCSSYTSSSTWVFGGGTRLTVL
4

Need Murine CXCR2 % Positive, item BKO-2D8: VH SEQ ID NO: 9, VL SEQ ID NO: 10 (antibody, V domains shown, BKO_2D8_VH; BKO_2D8_VL) VH: EVQLLESGGGLVQPGGSLRLSCAASGYTFTSSTMSWVRQAPGKGLEWVTAISGRGGRTYYADSVKGRFTISRDNSKNTLYLQMNSLRAEDTAVYYCAIQLGNWGQGILVTVSS VL: QSALTQPPSASGSPGQSVTISCTGTSSDIGGYNYVSWYQQHPGKAPKLVIYEVNMRPSGVPARFSGSKSGNTASLTVSGLQAEDEADYYCSSYAGNDNFGVFGGGTKLSVL
7
